- PROCEDURE DETAILS: Acumen qHTS Assay for Inhibitors of the mTORC1 Signaling Pathway in MEF (Tsc2-/-, p53-/-) Cells: Hit Validation;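 further: phospho-rpS6 Ser235/236 immunofluorescence normalized to propidium iodide cell count; potency means the concentration at half of the fitted maximal effect; nearly all actives have a fitted effect of over 65% in size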
- STATED CONDITIONS: Acumen imaging
Inconclusive results are not listed. Calls of active or inactive are those of the source. The call rests on the fitted dose curve; in most records, active means well fitted inhibition curve with a large enough effect; inconclusive means small, poorly fitted or top-dose-only effect; inactive means no such curve, though single readings can be large or run the other way.
MEASURE: Potency

>>> print(df.to_string())
                            chemical_string     measured_value
0  CC(=O)Nc1cccc(NC(=O)C(=O)NCCc2sc(-c3ccccc3)nc2C)c1  0.329 µM (active)
1  O=c1oc2ccccc2cc1-c1cn2cc(Cc3ccccc3F)sc2n1   16.5 µM (active)
2  CCCCS(=O)(=O)c1oc(-c2cccs2)nc1S(=O)(=O)c1ccc(F)cc1   3.69 µM (active)

Consider the compound CCOc1ccccc1NC(=O)CN1C(=O)C(=O)c2ccccc21 and give its measured Potency.
18.5 µM (active)

Consider the compound COC(=O)c1c(C)oc2ccc(N(C(=O)c3ccncc3)S(=O)(=O)c3ccc(OC)cc3)cc12 and give its measured Potency.
1.85 µM (active)
